# MEASURED TARGET: DN-III quality control recombinant protein (produced by Fapon Biotech InC.) (dengue virus)
# PROCEDURE DETAILS: BLI, AMC sensor, antibody captured
pKd: −log10 of the molar value.
Quick reference: pKd of the listed items.
ASSAY ENDPOINT: pKd

BINDER: Mutation 1-3 (antibody, V domains shown) VH: EVQLQQSGTELVRPGALVKLSCKASGFNIKDYYVHWVKQRPRQGLEWIGWIDPENGKTIYDPKFQDKASITSDTSTNTAYLQLRSLTSEDTAVYYCVSAYVRFVYWGQGTLVTVSA VL: QIVLTQSPAIMSAFPGERVTMTCSASTSVRYMYWHQQKPGSSPRLLIYDTSNIASGVPVRFSGSGSGTSYSLTISRDEAMDAATYYCQQWSSTPRTFGGGTKLEIKR
ASSAY ENDPOINT: pKd
MEASURED VALUE: 9.49
//
BINDER: Mutation 1-35 (antibody, V domains shown) VH: EVQLQQSGTELVRPGALVKLSCKASGFNIKDYYLHWVKQRPRQGLEWIGWIDPENGKTLYDPKFQDKASITSDTSTNTAYLQLRSLTSEDTAVYYCVSAYYRFVYWGQGTLVTVSA VL: QIVLTQSPAIMSAFPGERVTMTCSASTSVRYMYWHQQKPGSSPRLLIYDTSNVASGVPVRFSGSGSGTSYSLTISRDEAMDAATYYCQQWSSTPRTFGGGTKLEIKR
ASSAY ENDPOINT: pKd
MEASURED VALUE: 8.98

FYI, the data here is from patent US20240158475A1.
